Biological target: T1, human GIP receptor (human, UniProt P48546 22-466)
T1 sequence (looked up): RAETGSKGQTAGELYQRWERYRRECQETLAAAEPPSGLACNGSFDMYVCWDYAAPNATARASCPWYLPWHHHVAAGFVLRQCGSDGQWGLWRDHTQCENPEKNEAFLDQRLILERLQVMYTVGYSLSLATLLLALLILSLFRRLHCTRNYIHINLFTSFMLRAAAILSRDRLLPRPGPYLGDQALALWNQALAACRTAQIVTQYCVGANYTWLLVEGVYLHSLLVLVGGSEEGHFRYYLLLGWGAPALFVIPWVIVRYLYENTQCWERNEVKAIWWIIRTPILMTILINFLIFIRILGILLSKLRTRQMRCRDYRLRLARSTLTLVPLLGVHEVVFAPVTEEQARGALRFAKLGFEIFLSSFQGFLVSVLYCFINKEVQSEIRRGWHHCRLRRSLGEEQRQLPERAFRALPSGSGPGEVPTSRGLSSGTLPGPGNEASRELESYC
Experiment: cell-based or functional assay
Bridge positions count the residues as written; N and C are the ends. Square brackets hold non-standard residues; d marks the D form. Ends that are not written are not given here. * marks the point of attachment. Acetyl(2-(4-imidazolyl)) = O=C(Cc1c[nH]cn1)*; Aib = CC(C)(N)C(=O)O
Observable: In vitro activity compared with native peptide (%) vs GIP (cAMP EC50)

For orientation, consider the following solved cases.
1. H[Aib]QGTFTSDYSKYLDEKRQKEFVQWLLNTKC (bridge 16-20) [triple agonist of SEQ ID NO: 58] = 0.2%
2. [Acetyl(2-(4-imidazolyl))]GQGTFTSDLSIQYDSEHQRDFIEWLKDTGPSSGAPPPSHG [triple agonist of SEQ ID NO: 19] = < 0.1%
3. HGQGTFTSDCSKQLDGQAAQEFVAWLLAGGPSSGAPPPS [triple agonist of SEQ ID NO: 44] = < 0.1%
4. H[Aib]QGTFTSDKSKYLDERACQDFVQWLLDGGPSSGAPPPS [triple agonist of SEQ ID NO: 40] = < 0.1%
5. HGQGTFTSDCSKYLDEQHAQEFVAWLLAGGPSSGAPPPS [triple agonist of SEQ ID NO: 46] = < 0.1%

Next item in the queue.
**Query** Would you mind telling me what In vitro activity compared with native peptide (%) vs GIP (cAMP EC50) value was observed for [Acetyl(2-(4-imidazolyl))][Aib]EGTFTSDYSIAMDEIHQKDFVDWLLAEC (bridge 16-20) [triple agonist of SEQ ID NO: 84] ?
**Result** < 0.1%
